# test method notes: Stability testing against formation of the impurities atorvastatin-epoxy-dihydroxy (AED) and epoxydiketone on storage
# Format: physicochemical
# experimental conditions: 6 m/2-8° C. (Test Sample D)
readout name: ATV-epoxy-dihydroxy (AED)

**Q:** Quick one: ATV-epoxy-dihydroxy (AED) of CC(C)c1c(C(=O)Nc2ccccc2)c(-c2ccccc2)c(-c2ccc(F)cc2)n1CC[C@@H](O)C[C@@H](O)CC(=O)O (relative stereo) [atorvastatin hemi-calcium crystalline, atorvastatin hemi-calcium] ?
**A:** < 0.05 % (w/w)

----------
# test method notes: Stability testing against formation of the impurities atorvastatin-epoxy-dihydroxy (AED) and epoxydiketone on storage
# Format: physicochemical
# experimental conditions: 1 m/40° C./75% RH (Test Sample I)
readout name: ATV-epoxy-dihydroxy (AED)

**Q:** Quick one: ATV-epoxy-dihydroxy (AED) of CC(C)c1c(C(=O)Nc2ccccc2)c(-c2ccccc2)c(-c2ccc(F)cc2)n1CC[C@@H](O)C[C@@H](O)CC(=O)O (relative stereo) ?
**A:** < 0.01 % (w/w)

----------
# test method notes: Stability testing against formation of the impurities atorvastatin-epoxy-dihydroxy (AED) and epoxydiketone on storage
# Assay type: physicochemical
# experimental conditions: 0 (5 m at storage) (Test Sample B)
readout name: ATV-epoxy-dihydroxy (AED)

**Q:** Quick one: ATV-epoxy-dihydroxy (AED) of CC(C)c1c(C(=O)Nc2ccccc2)c(-c2ccccc2)c(-c2ccc(F)cc2)n1CC[C@@H](O)C[C@@H](O)CC(=O)O (relative stereo) ?
**A:** < 0.01 % (w/w)

----------
# test method notes: Stability testing against formation of the impurities atorvastatin-epoxy-dihydroxy (AED) and epoxydiketone on storage
# Type: physicochemical
# experimental conditions: 2 m/25° C./60% RH (Test Sample F)
# Method: As used herein, the term “stable” in reference to atorvastatin hemi-calcium Form VIII relates to the formation of […] 0.01% (w/w) of the impurity AED. The stability of Form VIII is measured by maintaining Form VIII at a temperature of about 40° C. at a relative humidity of about 75% for at least about 1 month, or at a temperature of about 25° C. at a relative humidity of about 60% for at least about 6 months. […]
readout name: ATV-epoxy-dihydroxy (AED)

**Q:** Quick one: ATV-epoxy-dihydroxy (AED) of CC(C)c1c(C(=O)Nc2ccccc2)c(-c2ccccc2)c(-c2ccc(F)cc2)n1CC[C@@H](O)C[C@@H](O)CC(=O)O (relative stereo) ?
**A:** < 0.01 % (w/w)

----------
# test method notes: Stability testing against formation of the impurities atorvastatin-epoxy-dihydroxy (AED) and epoxydiketone on storage
# Format: physicochemical
# experimental conditions: 3 m/25° C./60% RH (Test Sample G)
readout name: ATV-epoxy-dihydroxy (AED)

**Q:** Quick one: ATV-epoxy-dihydroxy (AED) of CC(C)c1c(C(=O)Nc2ccccc2)c(-c2ccccc2)c(-c2ccc(F)cc2)n1CC[C@@H](O)C[C@@H](O)CC(=O)O (relative stereo) ?
**A:** < 0.01 % (w/w)

----------
# test method notes: Stability testing against formation of the impurities atorvastatin-epoxy-dihydroxy (AED) and epoxydiketone on storage
# Assay type: physicochemical
# experimental conditions: release (Test Sample A)
readout name: ATV-epoxy-dihydroxy (AED)

**Q:** Quick one: ATV-epoxy-dihydroxy (AED) of CC(C)c1c(C(=O)Nc2ccccc2)c(-c2ccccc2)c(-c2ccc(F)cc2)n1CC[C@@H](O)C[C@@H](O)CC(=O)O (relative stereo) ?
**A:** < 0.01 % (w/w)
